system: Mus musculus; assay: Analgesic activity in ip dosed albino Swiss mouse assessed as nociceptive response measured after 60 mins by hot plate method; format: functional; details: 1 h
Ranges used to classify ED50: low: < 50 mg/kg; middle: ≥ 50 mg/kg and < 80 mg/kg; high: ≥ 80 mg/kg

Some solved cases for reference:
Compound: O=C(O)Cc1ccccc1Nc1c(Cl)cccc1Cl [DICLOFENAC]
Group: high
--
Compound: COc1ccc(NC(=O)CSc2nc3ccccc3c(=O)n2CCc2ccccn2)cc1
Group: high
--
Compound: O=c1c2ccccc2nc(S)n1CCc1ccccn1
Group: high
--
Compound: O=C(CSc1nc2ccccc2c(=O)n1CCc1ccccn1)N/N=C/c1ccc(Cl)cc1
Group: low
--
Compound: NNC(=O)CSc1nc2ccccc2c(=O)n1CCc1ccccn1
Group: low
--
Compound: O=C(CSc1nc2ccccc2c(=O)n1CCc1ccccn1)N/N=C/c1ccccc1
Group: middle

Exercise: # classify by ED50 band: "O=C(CSc1nc2ccccc2c(=O)n1CCc1ccccn1)Nc1ccc(F)cc1"
Solution: low

Exercise: # classify by ED50 band: "COc1cc(NC(=O)CSc2nc3ccccc3c(=O)n2CCc2ccccn2)cc(OC)c1OC"
Solution: middle

Exercise: # classify by ED50 band: Cc1ccc(-c2cc(C(F)(F)F)nn2-c2ccc(S(N)(=O)=O)cc2)cc1 [CELECOXIB]
Solution: middle

---

tested on: Rattus norvegicus; test: Antiinflammatory activity in ip dosed rat carrageenan-induced foot paw edema model measured after 2 hrs by plethysmometric analysis; assay type: functional
Readout name: ED50 (mg/kg)
Quick note: give the figure in mg/kg, leave out the unit.

Compound: COc1ccc(NC(=O)CSc2nc3ccccc3c(=O)n2CCc2ccccn2)cc1
U: mg/kg
Assay value: 81.5

Exercise: // fetch ED50 given entry "O=c1c2ccccc2nc(S)n1CCc1ccccn1"
Solution: 102

Exercise: // fetch ED50 given entry "O=C(CSc1nc2ccccc2c(=O)n1CCc1ccccn1)N/N=C/c1ccc(Cl)cc1"
Solution: 66.6

Exercise: // fetch ED50 given entry "COc1cc(NC(=O)CSc2nc3ccccc3c(=O)n2CCc2ccccn2)cc(OC)c1OC"
Solution: 65.3

---

test system: Mus musculus; assay: Analgesic activity in ip dosed albino Swiss mouse assessed as nociceptive response measured after 60 mins by hot plate method; format: functional; conditions: 1 h
Readout name: ED50 (mg/kg)
Quick note: give the figure in mg/kg, leave out the unit.

Solved entries:
Chemical smiles: O=C(CSc1nc2ccccc2c(=O)n1CCc1ccccn1)c1ccc(F)cc1
Assay value: 78.1

Chemical smiles: COc1cc(NC(=O)CCSc2nc3ccccc3c(=O)n2CCc2ccccn2)cc(OC)c1OC
Assay value: 80.3

Exercise: // fetch ED50 given entry "COc1ccc(/C=N/NC(=O)CSc2nc3ccccc3c(=O)n2CCc2ccccn2)cc1"
Solution: 50.3

Exercise: // fetch ED50 given entry "COc1ccc(/C=N/NC(=O)CSc2nc3ccccc3c(=O)n2CCc2ccccn2)cc1OC"
Solution: 78.5

---

Property: ED50; scope: individual compounds
tested on: Rattus norvegicus; assay: Antiinflammatory activity in ip dosed rat carrageenan-induced foot paw edema model measured after 2 hrs by plethysmometric analysis; type: functional
Quick note: give the figure in mg/kg, leave out the unit.

Solved entries:
Compound: O=C(O)Cc1ccccc1Nc1c(Cl)cccc1Cl [DICLOFENAC]
ED50 / mg/kg: 112

Compound: O=C(CSc1nc2ccccc2c(=O)n1CCc1ccccn1)Nc1ccc(F)cc1
ED50 / mg/kg: 50.3

Compound: COc1cc(NC(=O)CCSc2nc3ccccc3c(=O)n2CCc2ccccn2)cc(OC)c1OC
ED50 / mg/kg: 74.2

Compound: COc1ccc(/C=N/NC(=O)CSc2nc3ccccc3c(=O)n2CCc2ccccn2)cc1OC
ED50 / mg/kg: 112

Compound: COc1ccc(/C=N/NC(=O)CSc2nc3ccccc3c(=O)n2CCc2ccccn2)cc1
ED50 / mg/kg: 67.5

Compound: O=C(CSc1nc2ccccc2c(=O)n1CCc1ccccn1)c1ccc(F)cc1
ED50 / mg/kg: 91.2

Exercise: // fetch ED50 given entry "NNC(=O)CSc1nc2ccccc2c(=O)n1CCc1ccccn1"
Solution: 74.5

Exercise: // fetch ED50 given entry "O=C(CSc1nc2ccccc2c(=O)n1CCc1ccccn1)N/N=C/c1ccccc1"
Solution: 104
